# IC50 annotations
Molecular target: ROCK1 (Homo sapiens (Human))
Assay: Direct filter-binding radiometric kinase assay, IC50 determination
Format: biochemical
Conditions: 10 μM ATP; Table 2; read-out: Compound IC50 ROCK1
The figure you give is taken to be in µM; do not add the unit.

C[C@@H](N)C1CCN(S(=O)(=O)c2cccc3cnccc23)CC1 [BA-1049 (R)]: 3.9

Proceeding to the next compound to report its IC50.
# get_value(readout='IC50', item= `C[C@H](N)C1CCN(S(=O)(=O)c2cccc3cnccc23)CC1` )
10.2

###

Target: ROCK1 (Homo sapiens (Human), UniProt Q13464)
Sequence (Q13464 2-1354 limits assumed): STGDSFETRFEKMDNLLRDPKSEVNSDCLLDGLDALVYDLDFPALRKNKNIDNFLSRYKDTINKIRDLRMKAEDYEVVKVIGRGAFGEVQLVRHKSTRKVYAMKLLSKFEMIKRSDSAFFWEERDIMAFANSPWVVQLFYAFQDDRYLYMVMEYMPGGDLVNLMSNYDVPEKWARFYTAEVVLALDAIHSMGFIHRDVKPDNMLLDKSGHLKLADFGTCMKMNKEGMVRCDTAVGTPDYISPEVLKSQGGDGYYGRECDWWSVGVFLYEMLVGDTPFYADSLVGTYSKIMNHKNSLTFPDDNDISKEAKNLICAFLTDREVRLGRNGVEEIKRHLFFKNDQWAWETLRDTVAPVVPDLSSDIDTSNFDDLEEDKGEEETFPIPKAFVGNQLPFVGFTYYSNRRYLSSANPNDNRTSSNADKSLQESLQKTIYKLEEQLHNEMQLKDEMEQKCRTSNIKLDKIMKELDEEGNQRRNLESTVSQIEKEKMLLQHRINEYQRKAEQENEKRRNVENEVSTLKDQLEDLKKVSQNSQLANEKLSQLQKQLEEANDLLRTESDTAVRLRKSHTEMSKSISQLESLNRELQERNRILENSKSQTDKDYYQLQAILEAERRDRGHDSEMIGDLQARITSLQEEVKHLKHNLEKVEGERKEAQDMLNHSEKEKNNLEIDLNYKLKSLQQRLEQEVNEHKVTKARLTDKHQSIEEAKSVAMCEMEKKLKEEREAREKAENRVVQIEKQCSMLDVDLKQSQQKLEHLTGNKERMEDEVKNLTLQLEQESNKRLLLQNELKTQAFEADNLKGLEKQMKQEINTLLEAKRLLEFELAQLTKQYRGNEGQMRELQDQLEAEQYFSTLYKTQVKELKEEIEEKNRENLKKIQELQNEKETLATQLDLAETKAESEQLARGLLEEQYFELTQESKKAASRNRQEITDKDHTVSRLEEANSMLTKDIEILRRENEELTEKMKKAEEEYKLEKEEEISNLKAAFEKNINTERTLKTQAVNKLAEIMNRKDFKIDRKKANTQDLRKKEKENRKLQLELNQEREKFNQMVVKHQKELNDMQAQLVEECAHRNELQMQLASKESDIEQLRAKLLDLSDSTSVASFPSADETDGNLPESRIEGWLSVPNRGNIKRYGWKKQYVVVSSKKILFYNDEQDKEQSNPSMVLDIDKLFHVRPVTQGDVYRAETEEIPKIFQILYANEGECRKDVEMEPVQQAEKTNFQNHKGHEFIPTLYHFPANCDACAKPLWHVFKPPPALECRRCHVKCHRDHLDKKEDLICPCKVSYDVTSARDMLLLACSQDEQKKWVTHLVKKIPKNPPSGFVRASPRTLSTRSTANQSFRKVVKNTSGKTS
Assay: Direct filter-binding radiometric kinase assay, IC50 determination
Type: biochemical
Settings: Compound IC50 ROCK1 10 μM ATP, CRO Eurofins, 10 μM ATP
readout_label: IC50 (µM)
The figure you give is taken to be in µM; do not add the unit.

Query IC50 on ROCK1 (Homo sapiens (Human), UniProt Q13464) for C[C@@H](N)C1CCN(S(=O)(=O)c2cccc3cnccc23)CC1 [BA-1049 (R)]
3.9

###

Target: ROCK2 (Homo sapiens (Human), UniProt O75116)
Settings: read-out: ROCK2 KD; average of duplicate determinations; Table 5; listed as Racemic BA-1049: Lot 1
readout_label: Kd (nM)
The figure you give is taken to be in nM; do not add the unit.

# get_value(readout='Kd', item= CC(N)C1CCN(S(=O)(=O)c2cccc3cnccc23)CC1 (racemic) )
46

###

Molecular target: ROCK1 (Homo sapiens (Human), UniProt Q13464)
Assay: Direct filter-binding radiometric kinase assay, IC50 determination
Format: biochemical
Conditions: Compound IC50 ROCK1 70 μM ATP, Km ATP 70 μM; Table 7
readout_label: IC50 (µM)
The figure you give is taken to be in µM; do not add the unit.

Query IC50 on ROCK1 (Homo sapiens (Human), UniProt Q13464) for C[C@@H](N)C1CCN(S(=O)(=O)c2cccc3cnccc23)CC1 [BA-1049 (R)]
29.6

###

Biological target: UniProtKB O75116
Assay: Direct filter-binding radiometric kinase assay, IC50 determination
Type: biochemical
Settings: Compound IC50 ROCK2 10 μM ATP, CRO Reaction Biology, 10 μM ATP
readout_label: IC50 (nM)
The figure you give is taken to be in nM; do not add the unit.

# get_value(readout='IC50', item= C[C@@H](N)C1CCN(S(=O)(=O)c2cccc3cnccc23)CC1 [BA-1049 (R)] )
340

###

Molecular target: ROCK2 (Homo sapiens (Human))
Test: Direct filter-binding radiometric kinase assay, IC50 determination
Format: biochemical
Conditions: read-out: Compound IC50 ROCK2 10 μM ATP; CRO Eurofins, 10 μM ATP
# pIC50 annotations
Please note pIC50 is a logarithmic value: minus log10 of concentration in mol/L. Answer with that number alone.

Study these solved cases before continuing.
C[C@H](N)C1CCN(S(=O)(=O)c2cccc3cnccc23)CC1: 6.14
C[C@@H](N)C1CCN(S(=O)(=O)c2cccc3cnccc23)CC1 [BA-1049 (R)]: 6.62

Proceeding to the next molecule to report its pIC50.
# get_value(readout='pIC50', item= CC(N)C1CCN(S(=O)(=O)c2cccc3cnccc23)CC1 (racemic) )
6.26
